These data points were gathered from patent US20170066759A1.

Parameter pIC50: see the listing below.
TESTED SYSTEM: human TRPV4 (hTRPV4/CHO cells) (Homo sapiens, UniProt Q9HBA0)
Construct: expressed in transfected cells; host or cells: CHO-K1
Sequence (Q9HBA0 whole entry): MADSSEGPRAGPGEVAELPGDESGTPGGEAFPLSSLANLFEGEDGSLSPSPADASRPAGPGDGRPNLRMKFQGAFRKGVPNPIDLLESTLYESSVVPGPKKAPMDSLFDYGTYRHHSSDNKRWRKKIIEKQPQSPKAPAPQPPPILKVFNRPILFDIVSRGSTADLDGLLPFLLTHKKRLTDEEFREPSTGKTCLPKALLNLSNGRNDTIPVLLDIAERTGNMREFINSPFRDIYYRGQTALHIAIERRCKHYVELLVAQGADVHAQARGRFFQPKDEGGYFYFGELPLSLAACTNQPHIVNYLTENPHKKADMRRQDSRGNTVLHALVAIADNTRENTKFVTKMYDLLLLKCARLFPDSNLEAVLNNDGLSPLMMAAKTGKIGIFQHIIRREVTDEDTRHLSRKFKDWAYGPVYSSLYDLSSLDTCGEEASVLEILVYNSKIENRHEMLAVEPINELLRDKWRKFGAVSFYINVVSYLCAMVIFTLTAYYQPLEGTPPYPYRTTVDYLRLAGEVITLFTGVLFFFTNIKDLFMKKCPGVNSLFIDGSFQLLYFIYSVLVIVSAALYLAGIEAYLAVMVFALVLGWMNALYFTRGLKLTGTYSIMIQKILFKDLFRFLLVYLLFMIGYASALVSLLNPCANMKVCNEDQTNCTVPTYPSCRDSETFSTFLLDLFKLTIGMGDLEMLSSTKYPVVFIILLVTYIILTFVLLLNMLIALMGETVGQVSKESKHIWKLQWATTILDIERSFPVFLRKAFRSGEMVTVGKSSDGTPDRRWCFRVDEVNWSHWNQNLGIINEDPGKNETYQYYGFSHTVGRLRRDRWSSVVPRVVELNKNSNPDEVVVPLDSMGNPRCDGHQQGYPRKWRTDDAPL
EXPERIMENT DESCRIPTION: Test Example 1: TRPV4 inhibitory activity (IC50 value), 4α-PDD stimulation, Fluo4 calcium fluorescence (FLIPR TETRA)
Type: cell-based
CONDITION PARAMETERS: Test Example 1, 4α-PDD stimulation, read-out: Test 1 IC50
pIC50: −log10 of the molar value.
MEASURED ENDPOINT: pIC50

1. N#CCc1nc(CO)sc1-c1csc(NC(=O)C2CN(c3ncc(C(F)(F)F)cn3)C2)n1    > 7.00
2. Cc1nc(C)c(-c2csc(NC(=O)Cc3ccc(S(=O)(=O)C(F)(F)F)cc3)n2)s1 [Compound I-186]    > 7.00
3. Cc1nc(C)c(-c2csc(NC(=O)Cc3cccc(CN(C)C)c3)n2)s1    5.10 to 6.00
4. Cc1nc(CO)sc1-c1csc(NC(=O)CC2CCN(c3ncc(C(F)(F)F)cn3)CC2)n1    > 7.00
